Where these numbers come from: patent US20240262819A1

system_tested: glucosylceramide synthase (GCS) (Homo sapiens (Human), UniProt Q16739)
Sequence (Q16739 whole entry): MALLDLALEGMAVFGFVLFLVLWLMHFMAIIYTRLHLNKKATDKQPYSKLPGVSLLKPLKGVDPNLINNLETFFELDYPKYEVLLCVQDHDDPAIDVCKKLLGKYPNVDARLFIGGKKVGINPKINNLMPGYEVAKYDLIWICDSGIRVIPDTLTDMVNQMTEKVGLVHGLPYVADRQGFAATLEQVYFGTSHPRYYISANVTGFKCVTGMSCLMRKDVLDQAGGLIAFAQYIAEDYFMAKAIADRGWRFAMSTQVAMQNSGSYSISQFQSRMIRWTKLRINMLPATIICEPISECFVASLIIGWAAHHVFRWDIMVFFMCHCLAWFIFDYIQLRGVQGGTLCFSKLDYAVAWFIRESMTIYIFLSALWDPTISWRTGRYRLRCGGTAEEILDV
protocol_notes: Evaluation of inhibitory activities against GCS (A549 cell lysate, NBD C6-ceramide, HPLC)
Assay type: biochemical
measurement_name: pIC50
As a rule, pIC50 stands for the negative log10 of the concentration, concentration in M.

Data request: Using the record for CCCCOc1cccc(-c2cc3c(cc2F)[C@H](NC(=O)O[C@@H]2CN4CCC2CC4)C(C)(C)CC3)c1 [Example 186] , report its pIC50.
Data returned: 9.34

Data request: Subsequent entry: CC(C)Cc1ccc(-c2cc3c(cc2F)[C@H](NC(=O)O[C@@H]2CN4CCC2CC4)C(C)(C)CC3)cc1 [Example 174]
Data returned: 9.46

Data request: Subsequent entry: CCOc1ccc(-c2ccc3c(c2)CC(C)(C)[C@H]3NC(=O)O[C@@H]2CN3CCC2CC3)c(Cl)c1 [Example 44]
Data returned: 9.77

Data request: Subsequent entry: CCCOc1ccc(-c2cc3c(cc2C)[C@H](NC(=O)O[C@@H]2CN4CCC2CC4)C(C)(C)C3)cc1 [Example 121]
Data returned: 9.55

Data request: Subsequent entry: CCCCOc1cccc(-c2ccc3c(c2)CCC(C)(C)[C@H]3NC(=O)O[C@@H]2CN3CCC2CC3)c1 [Example 155]
Data returned: 9.41

Data request: Subsequent entry: CC1(C)Cc2cc(-c3ccc(OCC(F)(F)F)cc3Cl)c(F)cc2[C@@H]1NC(=O)O[C@@H]1CN2CCC1CC2 [Example 114]
Data returned: 9.70

Data request: Subsequent entry: Cc1cc(-c2cc3c(cc2F)[C@H](NC(=O)O[C@@H]2CN4CCC2CC4)C(C)(C)C3)ccc1OC(C)C [Example 94]
Data returned: 9.28

----------
protocol_notes: Evaluation of blood-brain barrier (BBB) permeability through oral administration
Assay type: in vivo, mice
applied_conditions: mouse, in vivo; mice, oral, dose 30 mg/kg, 4 hr; read-out: Mean brain-plasma drug ratio at 4 hr
Each entry gets label 0 if its Kp at 4 h stays under 4, and label 1 if its Kp at 4 h is 4 or above.

Data request: Can Cc1cc(-c2cc3c(cc2F)[C@H](NC(=O)O[C@@H]2CN4CCC2CC4)C(C)(C)C3)cc(C)c1OC(C)C [Example 65] be said to have Kp at 4 h at or above 4?
Data returned: label 1

Data request: Subsequent entry: CCCOc1c(C)cc(-c2cc3c(cc2F)[C@H](NC(=O)O[C@@H]2CN4CCC2CC4)C(C)(C)C3)cc1C [Example 64]
Data returned: label 1

Data request: Subsequent entry: COc1ccc(-c2ccc3c(c2)CC(C)(C)[C@H]3NC(=O)O[C@@H]2CN3CCC2CC3)cc1F [Example 18]
Data returned: label 0

Data request: Subsequent entry: COc1ccc(-c2cc3c(cc2F)[C@H](NC(=O)O[C@@H]2CN4CCC2CC4)C(C)(C)C3)cc1F [Example 89]
Data returned: label 1

Data request: Subsequent entry: CCCOc1c(C)cc(-c2cc3c(cc2F)[C@H](NC(=O)O[C@@H]2CN4CCC2CC4)C(C)(C)CC3)cc1C [Example 181]
Data returned: label 0

Data request: Subsequent entry: COc1cc(-c2ccc3c(c2)CC(C)(C)[C@H]3NC(=O)O[C@@H]2CN3CCC2CC3)ccc1OC(C)C [Example 35]
Data returned: label 0

Data request: Subsequent entry: CCOc1ccc(-c2ccc3c(c2)CC(C)(C)[C@H]3NC(=O)O[C@@H]2CN3CCC2CC3)cc1Cl [Example 15]
Data returned: label 1

Data request: Subsequent entry: COc1ccc(-c2ccc3c(c2)CC(C)(C)[C@H]3NC(=O)O[C@@H]2CN3CCC2CC3)c(Cl)c1 [Example 43]
Data returned: label 0

Data request: Subsequent entry: CCCc1ccc(-c2cc3c(cc2F)[C@H](NC(=O)O[C@@H]2CN4CCC2CC4)C(C)(C)CC3)cc1 [Example 171]
Data returned: label 0

Data request: Subsequent entry: CCOc1ccc(-c2cc3c(cc2F)[C@H](NC(=O)O[C@@H]2CN4CCC2CC4)C(C)(C)C3)cc1F [Example 90]
Data returned: label 1

Data request: Subsequent entry: CCCOc1ccc(-c2ccc3c(c2)CC(C)(C)[C@H]3NC(=O)O[C@@H]2CN3CCC2CC3)cc1Cl [Example 16]
Data returned: label 1

Data request: Subsequent entry: COc1ccc(-c2cc3c(cc2F)[C@H](NC(=O)O[C@@H]2CN4CCC2CC4)C(C)(C)CC3)c(F)c1 [Example 194]
Data returned: label 0

Data request: Subsequent entry: CC1(C)Cc2cc(-c3ccc(OCC4CC4)cc3Cl)ccc2[C@@H]1NC(=O)O[C@@H]1CN2CCC1CC2 [Example 38]
Data returned: label 1

Data request: Subsequent entry: CC(C)Oc1ccc(-c2cc3c(cc2F)[C@H](NC(=O)O[C@@H]2CN4CCC2CC4)C(C)(C)CC3)cc1F [Example 198]
Data returned: label 0

Data request: Subsequent entry: CC1(C)Cc2cc(-c3ccc(OCC4CC4)c(Cl)c3)ccc2[C@@H]1NC(=O)O[C@@H]1CN2CCC1CC2 [Example 39]
Data returned: label 1

Data request: Subsequent entry: CCOc1ccc(-c2cc3c(cc2F)[C@H](NC(=O)O[C@@H]2CN4CCC2CC4)C(C)(C)C3)cc1Cl [Example 86]
Data returned: label 1

Data request: Subsequent entry: Cc1ccc(-c2ccc3c(c2)CC(C)(C)[C@H]3NC(=O)O[C@@H]2CN3CCC2CC3)cc1Cl [Example 45]
Data returned: label 1

Data request: Subsequent entry: CCOc1ccc(-c2cc3c(cc2F)[C@H](NC(=O)O[C@@H]2CN4CCC2CC4)C(C)(C)C3)c(Cl)c1 [Example 104]
Data returned: label 0

Data request: Subsequent entry: CC(C)Oc1ccc(-c2cc3c(cc2F)[C@H](NC(=O)O[C@@H]2CN4CCC2CC4)C(C)(C)CC3)cc1 [Example 197]
Data returned: label 0

Data request: Subsequent entry: CC(C)c1ccc(-c2cc3c(cc2F)[C@H](NC(=O)O[C@@H]2CN4CCC2CC4)C(C)(C)C3)cc1 [Example 59]
Data returned: label 1

Data request: Subsequent entry: CC(C)Oc1ccc(-c2cc3c(cc2F)[C@H](NC(=O)O[C@@H]2CN4CCC2CC4)C(C)(C)C3)c(Cl)c1 [Example 92]
Data returned: label 1

Data request: Subsequent entry: Cc1cc(OC(C)C)ccc1-c1cc2c(cc1F)[C@H](NC(=O)O[C@@H]1CN3CCC1CC3)C(C)(C)C2 [Example 96]
Data returned: label 1

Data request: Subsequent entry: Cc1cc(-c2ccc3c(c2)CC(C)(C)[C@H]3NC(=O)O[C@@H]2CN3CCC2CC3)cc(C)c1OC(C)C [Example 10]
Data returned: label 1

Data request: Subsequent entry: COc1c(C)cc(-c2cc3c(cc2F)[C@H](NC(=O)O[C@@H]2CN4CCC2CC4)C(C)(C)CC3)cc1C [Example 180]
Data returned: label 0

Data request: Subsequent entry: COc1ccc(-c2cc3c(cc2F)[C@H](NC(=O)O[C@@H]2CN4CCC2CC4)C(C)(C)C3)cc1 [Example 82]
Data returned: label 1

Data request: Subsequent entry: COc1ccc(-c2cc3c(cc2F)[C@H](NC(=O)O[C@@H]2CN4CCC2CC4)C(C)(C)C3)c(Cl)c1 [Example 103]
Data returned: label 0

Data request: Subsequent entry: CC(C)Oc1ccc(-c2cc3c(cc2F)[C@H](NC(=O)O[C@@H]2CN4CCC2CC4)C(C)(C)C3)cc1Cl [Example 66]
Data returned: label 1
